In this section we review reported OD450 ratio sample/blank values for a set of binders.
targetOrSystem: soluble IL-6R in cynomolgous plasma (cynomolgus monkey, UniProt A0A2K5WN54)
protocolSummary: ELISA 2, periplasmic extract; competitor IL-6; cyno plasma
Hey, just send me the number, nothing else.

Use these answered entries as a reference point.
binder | OD450 ratio sample/blank
IL6RPMP120B2 (VHH) VHH: EVQLVESGGGLVQAGGSLSLSCATSGRTISDDTMAWFRQAPGKEREFVATITFSGARTHYSDSVRDRFTISRDNAKNTVYLQMNSLKSEDTAVYYCAASTKYYSSTYNYIHPAFYDIWGQGTQVTVSS | 0.204
IL6RPMP101G11 (VHH) VHH: EVQLVESGGGLVQPGGSLRLSCAASASGFTLDYYAIGWFRQAPGKEREGVSCISSTDGSTYYADSVKGRFTISRDNAKNTVYLQMNSLNPEDTGVYTCAAVLTTAQAMGVPTRSYEYDYWGQGTQVTVSS | 0.0538
IL6RPMP106F7 (VHH) VHH: EVQLVESEGGLVQAGGSLRLSCAASGSIFRINAMGWYRQAPGKQRELVAAAISGGSTNYADFVKGRFTISRDNAKNTVYLQMNSLKPEDTAVYYCNALVVSHNYSDYVPFPDDYWGQGTQVTVSS | 1

query: So what's the measured OD450 ratio sample/blank for this one? IL6RPMP101F3 (VHH) VHH: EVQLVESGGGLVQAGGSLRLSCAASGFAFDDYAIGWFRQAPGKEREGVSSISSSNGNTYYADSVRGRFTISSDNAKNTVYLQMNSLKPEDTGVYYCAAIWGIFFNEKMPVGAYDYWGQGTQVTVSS
result: 0.822

query: Likewise for IL6RPMP120C1 (VHH) VHH: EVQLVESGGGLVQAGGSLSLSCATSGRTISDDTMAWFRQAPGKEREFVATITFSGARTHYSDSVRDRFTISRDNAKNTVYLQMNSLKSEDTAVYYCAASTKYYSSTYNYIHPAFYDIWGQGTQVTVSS ?
result: 0.187

query: Entry IL6RPMP100A10 (VHH) VHH: EVQLVESGGGLVQAGGSLRLSCAASGRGFSPYTMGWFRQAPGKERVFVAGISWSTGIAHYTDSVKGRFTISRDNAKNTGSLQMNSLKPEDTAVYYCAVVQTTKGNYDYWGQGTQVTVSS please
result: 0.189

query: Moving on to IL6RPMP120F4 (VHH) VHH: EVQLVESGGGLVQTGGSLRLSCAVSGRTDSTASVGWFRQAPGKQREWVVGISSGGSTHYADSVKGRFISSQDDAKNTVYLQMNSLKPEDTAIYYCAIAHGSSTYNYWGQGTQVTVSS
result: 0.0331

query: Again, but for IL6RPMP100G11 (VHH) VHH: EVQLVESGGGLVQAGGSLRLSCAASGRGFSPYTMGWFRQAPGKERVFVAGISWSTGIAHYTDSVKGRFTISRDNAKNTGSLQMNSLKPEDTAVYYCAVVQTTKGNYDYWGQGTQVTVSS
result: 0.202

Just for reference, patent US10618964B2 is where these values come from.
